system: KAI3 (IL-2 2.5 ng/mL); assay: percent inhibition of viability; higher = more inhibition; conditions: 72 h; 10 nM
endpoint-name: percent inhibition of viability (%)
Report the value in % with no unit label.

compound: CNC(=O)c1ccc(-c2cnc3ncc(Cc4ccc5ncccc5c4)n3n2)cc1F [NVP-INC280] (max concentration tested 1000 nM)
measured-target: KAI3 (IL-2 2.5 ng/mL)
endpoint-name: percent inhibition of viability
recorded-number: 2.81
--
compound: COc1c(C)cnc(Cn2cnc3c(Cl)nc(N)nc32)c1C [BIIB021] (max concentration tested 10000 nM)
measured-target: KAI3 (IL-2 2.5 ng/mL)
endpoint-name: percent inhibition of viability
recorded-number: 4.1
--
compound: CO[C@H]1C[C@@H]2CC[C@@H](C)[C@@](O)(O2)C(=O)C(=O)N2CCCC[C@H]2C(=O)O[C@H]([C@H](C)C[C@@H]2CC[C@@H](OP(C)(C)=O)[C@H](OC)C2)CC(=O)[C@H](C)/C=C(\C)[C@@H](O)[C@@H](OC)C(=O)[C@H](C)C[C@H](C)/C=C/C=C/C=C/1C [Ridaforolimus] (max concentration tested 100 nM)
measured-target: KAI3 (IL-2 2.5 ng/mL);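 note: normalised to DMSO-only wells as negative and benzethonium chloride as positive control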
endpoint-name: percent inhibition of viability
recorded-number: 44
--
compound: COc1cc2c(NC3CCN(C(C)C)CC3)nc(N3CCC(F)(F)CC3)nc2cc1OCCCN1CCCC1 [UNC0642] (max concentration tested 10000 nM)
measured-target: KAI3 (IL-2 2.5 ng/mL);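 note: normalised to DMSO-only wells as negative and benzethonium chloride as positive control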
endpoint-name: percent inhibition of viability
recorded-number: 1.92
--
compound: CNC(=O)c1cccc(-c2ccc3c(N4CCOC[C@@H]4C)nc(N4CCOC[C@@H]4C)nc3n2)c1 [AZD2014] (max concentration tested 10000 nM)
measured-target: KAI3 (IL-2 2.5 ng/mL);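 note: normalised to DMSO-only wells as negative and benzethonium chloride as positive control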
endpoint-name: percent inhibition of viability
recorded-number: 24.3
--
compound: Cc1ccccc1C(C(=O)NC1CCCCC1)N(C(=O)Cn1ccnc1C)c1cccc(F)c1 (configuration not stated) [AGI-5198] (max concentration tested 10000 nM)
measured-target: KAI3 (IL-2 2.5 ng/mL);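 note: normalised to DMSO-only wells as negative and benzethonium chloride as positive control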
endpoint-name: percent inhibition of viability
recorded-number: -2.21

Next item in the queue.
Any idea what percent inhibition of viability was measured for CN(C)C1CCN(C(=O)c2ccc(NC(=O)Nc3ccc(-c4nc(N5CCOCC5)nc(N5CCOCC5)n4)cc3)cc2)CC1 [Gedatolisib] (max concentration tested 1000 nM) ? 7.1

Measured values drawn from the supplement of paper PMC5908809 for this set.
